target: soluble IL-6R in cynomolgous plasma (cynomolgus monkey, UniProt A0A2K5WN54); assay: ELISA 2, periplasmic extract; competitor IL-6; cyno plasma
Result type: OD450 ratio sample/blank

Worked examples follow.
Binder	OD450 ratio sample/blank
IL6RPMP101G4 (VHH) VHH: EVQLVESGGGLVQAGGSLRLSCAASGFAFDDYAIGWFRQAPGKEREGVSSISSSNGNTYYADSVRGRFTISSDNAKNTVYLQMNSLKPEDTGVYYCAAIWGIFFNEKMPVGAYDYWGQGTQVTVSS	0.815
IL6RPMP106B2 (VHH) VHH: EVQLVESGGGLVQAGGSLRLSCAASGSIFRINAMGWYRQAPGKQRELVAAAISGGSTNYADFVKGRFTISRDNAKNTVYLQMNSLKPEDTAVYYCNALVVSHNYSDYVPFPDDYWGQGTQVTVSS	1.02

A: IL6RPMP101A3 (VHH) VHH: EVQLVESGGGLVQAGGPLRLSCTASGRTFTDYDMGWFRQAPGKEREVVAIIDTNGDNTLTVGSVKGRFAISSDNAKNTVYLQMNSLLPEDTAVYTCAAGAWSALRRSVANYWGQGTQVTVSS
B: IL6RPMP119A10 (VHH) VHH: EVQLVESGGGLVQPGGSLRLSCAASKSIFDINAMYWHRQAPGKQRESVASITSGGMRNYADSVKDRFTISKDNAKNTVYLQMNGLKPDDTAVYYCGLGRYEGGVWRDYWGQGTQVTVSS
Determine, for A and B , which has the greater value of OD450 ratio sample/blank. Response format: the label of the selected entry.
A
